B1: FANCE (parent)
chain: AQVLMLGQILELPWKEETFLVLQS

Variants of: B1
Assay text: protein stability index of a GFP-peptide fusion (GPS, HEK-293T) (PSI 1-6); higher = more stable;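 note: lentivirally expressed fusions sorted by FACS into six bins by GFP to DsRed ratio, PSI derived from sequencing read proportions per bin multiplied by bin number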
Recorded conditions: c terminus: a fixed tail appended
Grouping key: protein stability index. Bins: bottom range = under 2, center range = from 2 up to 3, top range = 3 and over

Please classify: L6G
center range

Band for L20Y ?
top range

Which of the defined bands does the recorded protein stability index of Q23K sit within?
top range

Input A1L ; output its category
top range

Place this variant in its band: M5Q
bottom range

Exam item: assign E17A to the correct category.
center range

Tag the class for G7F
center range

Band assignment needed for L10T please.
center range

Bin? L10H
top range

Lab note: which band did K15H land in?
top range

Class for G7Q ?
center range

Entry L6P belongs to which category?
bottom range

// return the class label for G7R
top range

Which band does V3F fall in?
top range

Would you mind sorting L4H into the appropriate category?
bottom range

For this variant, which bin applies? F19Q
bottom range

Bin? I9R
center range

Any idea which band M5K is in?
bottom range

In plain terms, what class is Q2E ?
center range

// bin(item) where item = E11D
top range
